- test.name: PK analysis of lartesertib in plasma (non-compartmental)
- Type: in vivo, human
- measurement.parameters: human, plasma, oral; across 100-400 mg once daily, Day 1 and Day 8; read-out: Geometric mean elimination half-life (t1/2)
- Description: The PK of lartesertib was characterized during dose escalation using an intensive PK sample collection schedule. Blood samples were collected at multiple timepoints during Cycle 1, including on Day 1 (pre-dose at 0 hours and post-dose at 0.5, 1, 2, 3, 4, 6, 8, and 12 hours) and Day 8 (pre-dose at 0 hours and post-dose at 1, 2, 3, 4, 6, 8, and 12 hours). PK parameters were calculated from individual plasma concentration–time data using non-compartmental methods.
assay.metric: half-life

If you can, please state the reported half-life value of COc1cc2ncc3c(c2cc1-c1cn(C)nc1C)n(-c1c(F)cncc1OC)c(=O)n3C .
5 to 7 h

----------
- test.name: PK analysis of lartesertib in plasma (non-compartmental)
- Format: in vivo, human
- measurement.parameters: human, plasma, oral; across 100-400 mg once daily, Day 1 and Day 8; read-out: Median time to reach maximum observed plasma concentration (tmax)
assay.metric: Tmax

Need Tmax, item COc1cc2ncc3c(c2cc1-c1cn(C)nc1C)n(-c1c(F)cncc1OC)c(=O)n3C [lartesertib]
1 to 2 h
